The entries below are paired with their reported EC50.
System: HCV 1b
Experiment: HCV Replicon Assay
Type: cell-based
Details: Hepatitis C virus, 120 h; Huh 7 Clone B cells containing HCV Replicon RNA, five days incubation; read-out: Replicon EC50 (range against HCV 1b)

COC(=O)N[C@H](C(=O)N1C[C@@H](SC)C[C@H]1c1ncc(-c2ccc(-c3ccc(-c4cnc([C@@H]5C[C@H](SC)CN5C(=O)[C@@H](NC(=O)OC)C(C)C)[nH]4)cc3)cc2)[nH]1)C(C)C	< 1 nM
COC(=O)N[C@H](C(=O)N1C[C@H](n2cc([Si](C)(C)C)nn2)C[C@H]1c1ncc(-c2ccc(-c3ccc(-c4cnc([C@@H]5C[C@@H](n6cc([Si](C)(C)C)nn6)CN5C(=O)[C@@H](NC(=O)OC)C(C)C)[nH]4)cc3)cc2)[nH]1)C(C)C	1 to 99 nM
COC(=O)N[C@H](C(=O)N1C[C@H](n2ccnn2)C[C@H]1c1ncc(-c2ccc(-c3ccc(-c4cnc([C@@H]5C[C@@H](n6cc([Si](C)(C)C)nn6)CN5C(=O)[C@@H](NC(=O)OC)C(C)C)[nH]4)cc3)cc2)[nH]1)C(C)C	1 to 99 nM

Record COC(=O)N[C@H](C(=O)N1C[C@H](n2cc(-c3ccccc3)nn2)C[C@H]1c1ncc(-c2ccc(-c3ccc(-c4cnc([C@@H]5C[C@@H](n6cc(-c7ccccc7)nn6)CN5C(=O)[C@@H](NC(=O)OC)C(C)C)[nH]4)cc3)cc2)[nH]1)C(C)C . Reported EC50: 1 to 99 nM
